# procedure.summary: physchem
# condition.details: pH 6.8, aqueous buffer, kinetic from dmso stock, Solubility (pH 6.8)

compound: COC[C@H]1N(c2cccc(-c3cccc(C)c3OCc3cc(C)c4c(c3F)CCN(C3CCOCC3)C4)n2)C[C@@H]2C[C@@]21C(=O)O [Compound 59]
solubility at 24 h (µg/mL): 74

compound: Cc1ccc(OCc2cc(C)c3c(c2C)CCN(C2CCOC2)C3)c(-c2csc(N3CC[C@@]4(C(=O)O)C[C@H]4C3)n2)c1 (stereo partly shown) [Compound 129]
solubility at 24 h (µg/mL): 0.49

compound: Cc1c(COc2ccccc2-c2cccc(N3CC[C@@]4(C(=O)O)C[C@H]4C3)n2)ccc2c1CCN(C1COC1)C2 [Compound 4]
solubility at 24 h (µg/mL): 65

compound: CO[C@H]1CN(c2nc(-c3cccc(C)c3OCc3cc(C)c4c(c3)CCN(C3CCOCC3)C4)cs2)CC[C@H]1C(=O)O [Compound 167]
solubility at 24 h (µg/mL): 82

compound: COC[C@H]1N(c2nc(-c3cc(C)ccc3OCc3ccc4c(c3)CCN(C3CCOCC3)C4)cs2)C[C@@H]2C[C@@]21C(=O)O [Compound 163]
solubility at 24 h (µg/mL): 65

compound: CO[C@H]1CN(c2nc(-c3cccc(C)c3OCc3ccc4c(c3)[C@@H](C)CN(C3COC3)CC4)cs2)CC[C@H]1C(=O)O [Compound 325]
solubility at 24 h (µg/mL): 67.4

compound: CO[C@@H]1CN(c2cccc(-c3cccc(Cl)c3OCc3cc(C)c4c(c3)CCN(C3CCOCC3)C4)n2)CC[C@@H]1C(=O)O [Compound 255]
solubility at 24 h (µg/mL): 37.7

compound: CCO[C@H]1CN(c2nc(-c3cccc(Cl)c3OCc3cc4c(c(OC)c3)CN(C3CCOCC3)CC4)cs2)CC[C@H]1C(=O)O [Compound 261]
solubility at 24 h (µg/mL): 38.9

compound: CO[C@@H]1CN(c2nc(-c3cccc(C)c3OCc3cc(C)c4c(c3)CCN(CC3COCCO3)C4)cs2)CC[C@@H]1C(=O)O (stereo partly shown) [Compound 175]
solubility at 24 h (µg/mL): 95

compound: Cc1ccc(OCc2ccc3c(c2C)CCN(C2COC2)C3)c(-c2csc(N3CC[C@@]4(C(=O)O)C[C@H]4C3)n2)c1 [Compound 116]
solubility at 24 h (µg/mL): 6

compound: Cc1ccc(OCc2cc(C)c3c(c2C)CCN(C2CCCOC2)C3)c(-c2csc(N3CC[C@@]4(C(=O)O)C[C@H]4C3)n2)c1 (stereo partly shown) [Compound 128]
solubility at 24 h (µg/mL): 0.3

compound: Cc1ccc(OCc2ccc3c(c2)CCN(C2CCOCC2)C3)c(-c2csc(N3C[C@@H]4C[C@]4(C(=O)O)[C@H]3C)n2)c1 [Compound 153]
solubility at 24 h (µg/mL): 47

compound: Cc1ccc(OCc2cc(C)c3c(c2)CCN(C2CCOCC2)C3)c(-c2csc(N3CC[C@H](C(=O)O)[C@H](C)C3)n2)c1 [Compound 236]
solubility at 24 h (µg/mL): 129

compound: COC[C@H]1N(c2nc(-c3cccc(C)c3OCc3cc(C)c4c(c3)CCN(C3CCOCC3)C4)cs2)C[C@@H]2C[C@@]21C(=O)O [Compound 162]
solubility at 24 h (µg/mL): 75

compound: COc1ccc(OCc2ccc3c(c2C)CCN(C2COC2)C3)c(-c2csc(N3CC[C@@]4(C(=O)O)C[C@H]4C3)n2)c1 [Compound 201]
solubility at 24 h (µg/mL): 19.5

compound: Cc1cc(COc2c(C)cccc2-c2csc(N3C[C@@H]4C[C@]4(C(=O)O)C3)n2)cc2c1CN(C1COC1)CC2 [Compound 139]
solubility at 24 h (µg/mL): 59

compound: CO[C@@H]1CN(c2nc(-c3cc(F)cc(C)c3OCc3ccc4c(c3)[C@@H](C)CN(C3CCOCC3)CC4)cs2)CC[C@@H]1C(=O)O [Compound 328]
solubility at 24 h (µg/mL): 56.8

compound: Cc1ccc(OCc2cc(C)c3c(c2C)CCN(C2CCOCC2)C3)c(-c2cccc(N3C[C@@H]4C[C@]4(C(=O)O)C3)n2)c1 [Compound 39]
solubility at 24 h (µg/mL): 45

compound: Cc1cc(COc2c(C)cccc2-c2csc(N3C[C@H]4C[C@@]4(C(=O)O)[C@@H]3C)n2)cc2c1CN(C1COC1)CC2 [Compound 158]
solubility at 24 h (µg/mL): 65

compound: COc1cc(COc2c(C)cccc2-c2csc(N3CC[C@@H](C(=O)O)[C@@H](OC)C3)n2)cc2c1CN([C@H]1CCOC1)CC2 [Compound 211]
solubility at 24 h (µg/mL): 76.5

compound: COC[C@H]1N(c2cccc(-c3cccc(C)c3OCc3cc(C)c4c(c3)CN(C3CCOCC3)C4)n2)C[C@@H]2C[C@@]21C(=O)O [Compound 222]
solubility at 24 h (µg/mL): 119

compound: COC[C@H]1N(c2cccc(-c3cccc(C)c3OCc3ccc4c(c3F)CCN(C3COC3)CC4)n2)C[C@@H]2C[C@@]21C(=O)O [Compound 263]
solubility at 24 h (µg/mL): 54.4

compound: COC[C@H]1N(c2cccc(-c3cccc(C)c3OCc3cc4c(c(OC)c3)CN(C3CCOCC3)CC4)n2)C[C@@H]2C[C@@]21C(=O)O [Compound 57]
solubility at 24 h (µg/mL): 78

compound: COC[C@H]1N(c2cccc(-c3cccc(C)c3OCc3ccc4c(c3)[C@@H](C)CN(C3CCOCC3)CC4)n2)C[C@@H]2C[C@@]21C(=O)O [Compound 225]
solubility at 24 h (µg/mL): 129

compound: Cc1ccc(OCc2ccc3c(c2)CCN(C2CCOCC2)C3=O)c(-c2csc(N3CC[C@@]4(C(=O)O)C[C@H]4C3)n2)c1 [Compound 192]
solubility at 24 h (µg/mL): 9.2
